Values compiled from ChEMBL document CHEMBL3600363.

# experimental_system: Phosphatidylinositol 4,5-bisphosphate 3-kinase catalytic subunit gamma isoform (Homo sapiens, UniProt P48736)
# Sequence (P48736 whole entry, canonical isoform): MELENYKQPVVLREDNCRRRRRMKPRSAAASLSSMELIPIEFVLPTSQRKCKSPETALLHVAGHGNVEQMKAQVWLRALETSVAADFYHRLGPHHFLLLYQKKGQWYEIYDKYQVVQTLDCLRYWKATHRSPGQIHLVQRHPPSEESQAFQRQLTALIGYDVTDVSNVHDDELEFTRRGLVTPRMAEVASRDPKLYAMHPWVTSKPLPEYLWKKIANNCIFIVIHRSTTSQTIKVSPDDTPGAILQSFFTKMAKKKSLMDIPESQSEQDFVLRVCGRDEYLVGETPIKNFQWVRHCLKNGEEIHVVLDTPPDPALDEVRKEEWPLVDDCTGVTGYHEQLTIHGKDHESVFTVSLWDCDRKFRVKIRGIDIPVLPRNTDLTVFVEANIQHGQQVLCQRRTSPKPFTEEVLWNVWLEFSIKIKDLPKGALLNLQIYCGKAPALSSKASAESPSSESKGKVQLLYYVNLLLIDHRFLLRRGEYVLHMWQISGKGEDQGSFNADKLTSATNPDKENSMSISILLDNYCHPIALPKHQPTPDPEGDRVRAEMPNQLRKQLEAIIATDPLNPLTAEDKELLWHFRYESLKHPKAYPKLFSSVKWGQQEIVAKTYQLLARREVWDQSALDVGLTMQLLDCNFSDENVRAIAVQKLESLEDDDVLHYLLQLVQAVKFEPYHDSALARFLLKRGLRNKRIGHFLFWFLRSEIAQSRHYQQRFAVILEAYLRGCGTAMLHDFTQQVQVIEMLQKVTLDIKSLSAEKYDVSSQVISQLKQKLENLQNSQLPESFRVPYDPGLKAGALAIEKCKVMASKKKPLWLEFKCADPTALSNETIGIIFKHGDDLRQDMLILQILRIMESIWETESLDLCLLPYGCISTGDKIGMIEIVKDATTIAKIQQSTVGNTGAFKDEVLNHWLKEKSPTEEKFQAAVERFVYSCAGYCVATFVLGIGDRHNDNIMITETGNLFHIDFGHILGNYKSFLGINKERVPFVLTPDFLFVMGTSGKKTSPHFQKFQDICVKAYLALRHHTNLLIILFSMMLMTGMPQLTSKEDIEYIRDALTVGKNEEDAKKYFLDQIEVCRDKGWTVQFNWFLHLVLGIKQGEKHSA
# measurement_protocol: Inhibition of PI3Kgamma (unknown origin) pre-incubated for 20 mins before phosphatidylinositol 4, 5-bisphosphate substrate addition by kinase-glo plus luminescence assay
Consider the reported IC50 of an entry and match it to a band in class A = under 2 µM, class B = from 2 µM up to 4 µM, class C = 4 µM and over

Solved entries:
>  <structure_string>
CNCc1ccc(-c2ccc3nc(N)sc3c2)cn1

>  <assigned_category>
class C

$$$$
>  <structure_string>
Nc1nc2ccc(-c3cnn(CC4CC4)c3)cc2s1

>  <assigned_category>
class A

$$$$
>  <structure_string>
CS(=O)(=O)c1cncc(-c2ccc3nc(N)sc3c2)c1

>  <assigned_category>
class A

$$$$
>  <structure_string>
COCCOn1ccc(-c2ccc3nc(N)sc3c2)cc1=O

>  <assigned_category>
class C

$$$$
>  <structure_string>
CCCn1cc(-c2ccc3nc(N)sc3c2)cn1

>  <assigned_category>
class A

$$$$

Please examine the following record next.
Exam item: Category of `Nc1nc2ccc(-c3ccc(C(F)(F)F)nc3)cc2s1` :
Marked response: class A

====

# experimental_system: Phosphatidylinositol 4,5-bisphosphate 3-kinase catalytic subunit delta isoform (Homo sapiens)
# Sequence (O00329 whole entry): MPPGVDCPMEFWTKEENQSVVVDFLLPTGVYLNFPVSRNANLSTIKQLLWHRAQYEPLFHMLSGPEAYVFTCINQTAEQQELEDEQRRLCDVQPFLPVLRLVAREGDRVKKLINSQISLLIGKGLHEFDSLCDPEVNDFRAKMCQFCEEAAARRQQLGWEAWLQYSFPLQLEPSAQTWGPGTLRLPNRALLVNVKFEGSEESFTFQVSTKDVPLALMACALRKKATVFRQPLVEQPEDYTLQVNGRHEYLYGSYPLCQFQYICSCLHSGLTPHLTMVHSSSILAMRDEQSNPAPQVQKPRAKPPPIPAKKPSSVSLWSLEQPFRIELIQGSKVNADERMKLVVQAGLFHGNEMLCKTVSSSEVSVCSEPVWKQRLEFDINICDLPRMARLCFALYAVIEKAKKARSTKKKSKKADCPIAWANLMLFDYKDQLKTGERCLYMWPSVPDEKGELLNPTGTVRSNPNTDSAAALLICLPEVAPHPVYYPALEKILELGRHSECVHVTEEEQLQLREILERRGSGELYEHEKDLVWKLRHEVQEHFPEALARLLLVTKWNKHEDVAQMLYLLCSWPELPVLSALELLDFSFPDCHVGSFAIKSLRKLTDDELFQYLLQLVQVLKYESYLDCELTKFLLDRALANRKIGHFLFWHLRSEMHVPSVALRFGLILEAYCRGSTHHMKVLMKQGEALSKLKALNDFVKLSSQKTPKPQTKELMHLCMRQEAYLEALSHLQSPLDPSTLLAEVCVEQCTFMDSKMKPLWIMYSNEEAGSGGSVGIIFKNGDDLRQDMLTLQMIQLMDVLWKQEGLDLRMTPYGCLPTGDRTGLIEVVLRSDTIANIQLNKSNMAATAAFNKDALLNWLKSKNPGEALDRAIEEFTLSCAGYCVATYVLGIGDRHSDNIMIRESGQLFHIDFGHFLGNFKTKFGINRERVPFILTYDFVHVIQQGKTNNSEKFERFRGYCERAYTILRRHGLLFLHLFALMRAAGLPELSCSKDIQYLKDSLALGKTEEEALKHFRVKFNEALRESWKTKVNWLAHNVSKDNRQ
# measurement_protocol: Inhibition of PI3Kdelta (unknown origin) pre-incubated for 20 mins before phosphatidylinositol 4, 5-bisphosphate substrate addition by kinase-glo plus luminescence assay
// values below are reported pIC50
Please express pIC50 as -log10 of the molar concentration.

>  <structure_string>
Cn1ccc(-c2ccc3nc(N)sc3c2)cc1=O

>  <pIC50>
5.30

$$$$
>  <structure_string>
CC(C)Oc1cncc(-c2ccc3nc(N)sc3c2)c1

>  <pIC50>
5.90

$$$$
>  <structure_string>
CNCc1ccc(-c2ccc3nc(N)sc3c2)cn1

>  <pIC50>
4.20

$$$$

Exam item: Recorded pIC50 for `Cn1nccc1-c1ccc2nc(N)sc2c1` , please?
Marked response: 4.60

Exam item: Recorded pIC50 for `Nc1nc2ccc(-c3ccc(=O)[nH]c3)cc2s1` , please?
Marked response: 4.50

Exam item: Recorded pIC50 for `CS(=O)(=O)c1ccc(-c2ccc3nc(N)sc3c2)cn1` , please?
Marked response: 4.90

Exam item: Recorded pIC50 for `CC(C)Oc1ccc(-c2ccc3nc(N)sc3c2)cn1` , please?
Marked response: 4.90

Exam item: Recorded pIC50 for `Cc1ccc(-c2ccc3nc(N)sc3c2)cn1` , please?
Marked response: 5.90

====

# experimental_system: Phosphatidylinositol 4-phosphate 5-kinase type-1 gamma (Homo sapiens, UniProt O60331)
# Sequence (O60331 whole entry): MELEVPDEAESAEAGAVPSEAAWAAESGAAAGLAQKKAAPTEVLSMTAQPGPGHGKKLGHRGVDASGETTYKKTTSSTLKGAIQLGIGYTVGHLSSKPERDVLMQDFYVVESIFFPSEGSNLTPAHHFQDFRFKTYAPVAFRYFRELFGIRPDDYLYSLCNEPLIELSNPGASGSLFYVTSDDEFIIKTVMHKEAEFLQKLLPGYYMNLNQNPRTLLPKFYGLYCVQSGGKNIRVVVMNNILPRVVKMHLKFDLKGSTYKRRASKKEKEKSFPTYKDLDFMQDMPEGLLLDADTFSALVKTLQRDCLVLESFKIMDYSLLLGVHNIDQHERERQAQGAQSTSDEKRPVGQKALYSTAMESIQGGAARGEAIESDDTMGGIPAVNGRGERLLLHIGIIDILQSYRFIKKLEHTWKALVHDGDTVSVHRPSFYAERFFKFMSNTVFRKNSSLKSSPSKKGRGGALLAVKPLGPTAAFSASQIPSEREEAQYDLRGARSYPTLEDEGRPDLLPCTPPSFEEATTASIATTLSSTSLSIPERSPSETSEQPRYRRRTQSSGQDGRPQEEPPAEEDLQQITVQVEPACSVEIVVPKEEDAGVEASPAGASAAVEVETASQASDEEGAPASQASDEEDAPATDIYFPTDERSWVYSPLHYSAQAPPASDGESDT
// values below are reported pIC50
Please express pIC50 as -log10 of the molar concentration.

>  <structure_string>
Cn1ccc(-c2ccc3nc(N)sc3c2)n1

>  <pIC50>
4.20

$$$$

Please look at the following molecule next.
Exam item: Recorded pIC50 for `CS(=O)(=O)c1ccc(-c2ccc3nc(N)sc3c2)cn1` , please?
Marked response: 5.00

====

# experimental_system: Phosphatidylinositol 4,5-bisphosphate 3-kinase catalytic subunit beta isoform (Homo sapiens)
# Sequence (P42338 whole entry, canonical isoform): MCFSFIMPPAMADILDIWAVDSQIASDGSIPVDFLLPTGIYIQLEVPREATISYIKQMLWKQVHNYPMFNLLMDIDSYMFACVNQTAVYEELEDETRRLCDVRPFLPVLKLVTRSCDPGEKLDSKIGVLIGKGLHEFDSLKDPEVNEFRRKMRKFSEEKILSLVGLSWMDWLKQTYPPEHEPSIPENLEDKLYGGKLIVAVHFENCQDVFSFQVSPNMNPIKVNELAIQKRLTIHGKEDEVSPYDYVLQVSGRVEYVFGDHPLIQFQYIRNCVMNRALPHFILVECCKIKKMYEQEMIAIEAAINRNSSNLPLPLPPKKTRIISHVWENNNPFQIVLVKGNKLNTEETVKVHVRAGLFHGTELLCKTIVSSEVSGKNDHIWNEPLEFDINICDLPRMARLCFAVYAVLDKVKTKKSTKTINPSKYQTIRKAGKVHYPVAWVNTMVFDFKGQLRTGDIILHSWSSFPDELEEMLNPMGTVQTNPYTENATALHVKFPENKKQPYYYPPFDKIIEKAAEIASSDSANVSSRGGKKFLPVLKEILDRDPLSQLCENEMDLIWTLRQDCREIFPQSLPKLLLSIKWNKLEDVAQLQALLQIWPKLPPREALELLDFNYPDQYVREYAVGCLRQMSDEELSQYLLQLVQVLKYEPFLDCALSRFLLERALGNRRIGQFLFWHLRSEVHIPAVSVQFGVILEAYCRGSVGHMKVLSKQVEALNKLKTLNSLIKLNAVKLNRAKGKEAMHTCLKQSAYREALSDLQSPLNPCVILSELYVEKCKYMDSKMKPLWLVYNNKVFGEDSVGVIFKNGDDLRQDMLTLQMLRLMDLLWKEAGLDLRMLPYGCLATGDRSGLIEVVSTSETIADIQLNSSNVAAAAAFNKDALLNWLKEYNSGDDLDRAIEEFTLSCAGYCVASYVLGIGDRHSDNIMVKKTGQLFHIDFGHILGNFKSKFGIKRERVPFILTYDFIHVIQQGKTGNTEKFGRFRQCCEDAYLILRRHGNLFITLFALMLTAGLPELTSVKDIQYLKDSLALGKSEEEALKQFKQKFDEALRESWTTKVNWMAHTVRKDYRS
# measurement_protocol: Inhibition of PI3Kbeta (unknown origin) pre-incubated for 20 mins before phosphatidylinositol 4, 5-bisphosphate substrate addition by kinase-glo plus luminescence assay
pIC50: −log10 of the molar value.
Record class 1 whenever pIC50 is at 5 or higher; record class 0 when lower.

Exam item: Hello, I need to know if `CS(=O)(=O)c1cncc(-c2ccc3nc(N)sc3c2)c1` has measured pIC50 not below 5. Thanks!
Marked response: class 1

Exam item: Hello, I need to know if `CCN(C)c1ccc(-c2ccc3nc(N)sc3c2)cn1` has measured pIC50 not below 5. Thanks!
Marked response: class 0

Exam item: Hello, I need to know if `Nc1nc2ccc(-c3cnn(Cc4ccccc4)c3)cc2s1` has measured pIC50 not below 5. Thanks!
Marked response: class 0

Exam item: Hello, I need to know if `Nc1nc2ccc(-c3cnn(CC4CC4)c3)cc2s1` has measured pIC50 not below 5. Thanks!
Marked response: class 0

Exam item: Hello, I need to know if `Nc1nc2ccc(-c3cnccn3)cc2s1` has measured pIC50 not below 5. Thanks!
Marked response: class 1

Exam item: Hello, I need to know if `Cn1ccc(-c2ccc3nc(N)sc3c2)cc1=O` has measured pIC50 not below 5. Thanks!
Marked response: class 0

Exam item: Hello, I need to know if `O=c1cc(-c2ccc3nc(NCC4CCS(=O)(=O)CC4)sc3c2)ccn1CC1CC1` has measured pIC50 not below 5. Thanks!
Marked response: class 0

Exam item: Hello, I need to know if `C[C@H](Nc1nc2ccc(-c3ccn(CC4CC4)c(=O)c3)cc2s1)C1CCOCC1` has measured pIC50 not below 5. Thanks!
Marked response: class 0

Exam item: Hello, I need to know if `CS(=O)(=O)c1ccc(-c2ccc3nc(N)sc3c2)cn1` has measured pIC50 not below 5. Thanks!
Marked response: class 0

Exam item: Hello, I need to know if `Nc1nc2ccc(-c3ccc(OCCO)nc3)cc2s1` has measured pIC50 not below 5. Thanks!
Marked response: class 1

Exam item: Hello, I need to know if `Nc1nc2ccc(-c3ccc(=O)[nH]c3)cc2s1` has measured pIC50 not below 5. Thanks!
Marked response: class 0

Exam item: Hello, I need to know if `O=c1cc(-c2ccc3nc(NC[C@H]4CC[C@H](C(=O)O)CC4)sc3c2)ccn1CC1CC1` has measured pIC50 not below 5. Thanks!
Marked response: class 0

====

# experimental_system: Phosphatidylinositol 4-kinase alpha (Homo sapiens, UniProt P42356)
# Sequence (P42356 whole entry): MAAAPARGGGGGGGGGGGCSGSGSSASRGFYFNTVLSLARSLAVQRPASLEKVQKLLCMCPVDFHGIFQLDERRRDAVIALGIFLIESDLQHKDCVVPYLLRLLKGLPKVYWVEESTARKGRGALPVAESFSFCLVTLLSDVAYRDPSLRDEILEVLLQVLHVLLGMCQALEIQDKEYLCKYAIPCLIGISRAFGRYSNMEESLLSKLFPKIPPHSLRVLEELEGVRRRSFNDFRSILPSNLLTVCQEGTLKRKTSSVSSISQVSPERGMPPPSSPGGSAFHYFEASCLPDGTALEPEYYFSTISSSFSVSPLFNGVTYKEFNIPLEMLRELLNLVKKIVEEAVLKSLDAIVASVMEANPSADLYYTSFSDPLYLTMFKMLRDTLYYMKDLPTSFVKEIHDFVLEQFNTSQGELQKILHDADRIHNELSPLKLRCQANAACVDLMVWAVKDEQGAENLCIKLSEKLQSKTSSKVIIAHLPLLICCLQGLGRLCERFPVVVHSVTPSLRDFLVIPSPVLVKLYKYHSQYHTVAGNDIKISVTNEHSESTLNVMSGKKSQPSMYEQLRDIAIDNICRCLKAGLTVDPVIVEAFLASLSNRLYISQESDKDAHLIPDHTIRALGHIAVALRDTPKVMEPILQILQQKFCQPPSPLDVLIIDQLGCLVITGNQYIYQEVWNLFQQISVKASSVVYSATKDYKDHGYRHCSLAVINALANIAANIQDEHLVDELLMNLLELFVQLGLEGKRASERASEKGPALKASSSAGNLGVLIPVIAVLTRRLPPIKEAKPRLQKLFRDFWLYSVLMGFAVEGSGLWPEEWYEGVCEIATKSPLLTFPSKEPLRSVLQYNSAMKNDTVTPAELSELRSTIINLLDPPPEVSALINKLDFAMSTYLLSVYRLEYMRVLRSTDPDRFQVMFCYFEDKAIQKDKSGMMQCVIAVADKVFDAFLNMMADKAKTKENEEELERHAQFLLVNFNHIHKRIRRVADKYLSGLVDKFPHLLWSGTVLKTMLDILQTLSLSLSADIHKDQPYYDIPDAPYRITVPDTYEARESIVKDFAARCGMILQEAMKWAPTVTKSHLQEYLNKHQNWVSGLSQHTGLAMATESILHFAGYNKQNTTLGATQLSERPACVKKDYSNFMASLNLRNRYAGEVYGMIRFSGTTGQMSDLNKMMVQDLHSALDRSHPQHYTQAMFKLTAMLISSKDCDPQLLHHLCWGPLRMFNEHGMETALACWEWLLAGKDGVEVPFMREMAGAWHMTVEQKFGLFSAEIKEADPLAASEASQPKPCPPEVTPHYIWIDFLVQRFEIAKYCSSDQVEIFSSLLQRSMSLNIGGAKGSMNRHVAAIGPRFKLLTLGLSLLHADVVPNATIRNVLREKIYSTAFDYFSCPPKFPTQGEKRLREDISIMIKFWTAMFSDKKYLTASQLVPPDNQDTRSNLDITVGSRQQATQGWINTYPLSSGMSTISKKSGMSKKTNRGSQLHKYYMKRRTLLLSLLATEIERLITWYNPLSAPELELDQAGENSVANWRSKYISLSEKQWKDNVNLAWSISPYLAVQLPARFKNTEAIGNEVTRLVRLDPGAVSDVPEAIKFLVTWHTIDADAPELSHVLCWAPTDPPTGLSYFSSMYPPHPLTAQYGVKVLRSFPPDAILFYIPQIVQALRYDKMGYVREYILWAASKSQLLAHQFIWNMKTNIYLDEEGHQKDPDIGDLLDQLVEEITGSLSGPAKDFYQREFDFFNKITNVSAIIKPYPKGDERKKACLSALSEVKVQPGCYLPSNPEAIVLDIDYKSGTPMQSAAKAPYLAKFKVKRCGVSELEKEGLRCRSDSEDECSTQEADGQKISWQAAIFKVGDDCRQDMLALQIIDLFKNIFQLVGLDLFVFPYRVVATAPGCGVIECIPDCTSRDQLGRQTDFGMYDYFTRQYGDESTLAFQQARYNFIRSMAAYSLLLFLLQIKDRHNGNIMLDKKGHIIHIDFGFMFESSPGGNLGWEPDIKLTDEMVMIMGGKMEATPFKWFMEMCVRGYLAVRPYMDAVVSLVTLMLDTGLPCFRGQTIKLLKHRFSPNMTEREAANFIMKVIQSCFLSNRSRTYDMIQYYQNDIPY
# measurement_protocol: Inhibition of N-terminal FLAG-tagged human full length recombinant PI4K3alpha using D-myo-phosphatidylinositol substrate and ATP incubated for 45 mins by ADP-Glo kinase Assay
// values below are reported log10 of IC50
Friendly reminder: values = log10 of IC50, unit µM.

Examples from the recorded data:
>  <structure_string>
Nc1nc2ccc(-c3cnccn3)cc2s1

>  <experimental_system>
Phosphatidylinositol 4-kinase alpha (Homo sapiens, UniProt P42356)

>  <log10 of IC50>
0.90

$$$$
>  <structure_string>
Nc1nc2ccc(-c3cc[nH]c(=O)c3)cc2s1

>  <experimental_system>
Phosphatidylinositol 4-kinase alpha (Homo sapiens, UniProt P42356)

>  <log10 of IC50>
-0.50

$$$$
>  <structure_string>
Nc1nc2ccc(-c3ccc(OCCO)nc3)cc2s1

>  <experimental_system>
Phosphatidylinositol 4-kinase alpha (Homo sapiens, UniProt P42356)

>  <log10 of IC50>
-0.50

$$$$
>  <structure_string>
CS(=O)(=O)c1cncc(-c2ccc3nc(N)sc3c2)c1

>  <experimental_system>
Phosphatidylinositol 4-kinase alpha (Homo sapiens, UniProt P42356)

>  <log10 of IC50>
-0.40

$$$$
>  <structure_string>
CNCc1ccc(-c2ccc3nc(N)sc3c2)cn1

>  <experimental_system>
Phosphatidylinositol 4-kinase alpha (Homo sapiens, UniProt P42356)

>  <log10 of IC50>
0.40

$$$$
>  <structure_string>
Cn1nccc1-c1ccc2nc(N)sc2c1

>  <experimental_system>
Phosphatidylinositol 4-kinase alpha (Homo sapiens, UniProt P42356)

>  <log10 of IC50>
1.10

$$$$

Exam item: Recorded log10 of IC50 for `CCOc1ccc(-c2ccc3nc(N)sc3c2)cn1` , please?
Marked response: -0.80

Exam item: Recorded log10 of IC50 for `Nc1nc2ccc(-c3ccccn3)cc2s1` , please?
Marked response: 1.00

Exam item: Recorded log10 of IC50 for `CC(C)n1cc(-c2ccc3nc(N)sc3c2)cn1` , please?
Marked response: 1.40
